- tgt: NOS1, P29475
- Sequence (P29475 9-101): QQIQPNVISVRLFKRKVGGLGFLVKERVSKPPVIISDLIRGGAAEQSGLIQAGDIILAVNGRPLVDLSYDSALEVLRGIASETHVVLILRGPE
- method_summary: holdup assay
- Set-up: key: below the threshold = too weak to quantify, mostly under pKd 3.1 to 4
- assay_conditions: plain residues with an end cap or a label only (N-terminal biotin on a linker: ahx)
// values below are reported pKd

binder: TQKFRASTAL [FRMPD1, Q5SYB0]
pKd: 3.72
--
binder: HTHSYIETHV [CNKSR2, Q8WXI2]
pKd: 3.85
